Sourced from patent US20170088602A1

Biological target: T1, human myostatin (mature, recombinant; R&D Systems) (human, UniProt O14793 267-375)
T1 sequence: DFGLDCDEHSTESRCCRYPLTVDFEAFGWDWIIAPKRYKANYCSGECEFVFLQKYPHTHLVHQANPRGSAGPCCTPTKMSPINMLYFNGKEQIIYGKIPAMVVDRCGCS
Assay: cell-based or functional assay
RECORDED METRIC: Myostatin ARE-luc IC50 (nM)

{"BINDER": "3116_A06 T83A (designed binder) MGVSDVPRDLEVVAATPTSLLISWSLPHQGKANYYRITYGETGGNSPVQEFTVPGRGVTATISGLKPGVDYTITVYAVTVTDAGYLKYKPISINYRTEIDKPSQHHHHHH", "VALUE": 1.8}

A. 3116_A06 L26A (designed binder) MGVSDVPRDLEVVAATPTSLLISWSAPHQGKANYYRITYGETGGNSPVQEFTVPGRGVTATISGLKPGVDYTITVYAVTVTDTGYLKYKPISINYRTEIDKPSQHHHHHH
B. 3116_A06 D82A (designed binder) MGVSDVPRDLEVVAATPTSLLISWSLPHQGKANYYRITYGETGGNSPVQEFTVPGRGVTATISGLKPGVDYTITVYAVTVTATGYLKYKPISINYRTEIDKPSQHHHHHH
Input line: Compare A and B and name the one whose reported Myostatin ARE-luc IC50 is smaller. Answer format: the label of the selected item.
Output line: B
(B: 1.8 nM, A: 16 nM)
